ASSAYED_TARGET: glucocorticoid receptor (GR) (Homo sapiens, UniProt P04150)
Construct: expressed in transfected cells; host or cells: 293T
Sequence (P04150 1-777): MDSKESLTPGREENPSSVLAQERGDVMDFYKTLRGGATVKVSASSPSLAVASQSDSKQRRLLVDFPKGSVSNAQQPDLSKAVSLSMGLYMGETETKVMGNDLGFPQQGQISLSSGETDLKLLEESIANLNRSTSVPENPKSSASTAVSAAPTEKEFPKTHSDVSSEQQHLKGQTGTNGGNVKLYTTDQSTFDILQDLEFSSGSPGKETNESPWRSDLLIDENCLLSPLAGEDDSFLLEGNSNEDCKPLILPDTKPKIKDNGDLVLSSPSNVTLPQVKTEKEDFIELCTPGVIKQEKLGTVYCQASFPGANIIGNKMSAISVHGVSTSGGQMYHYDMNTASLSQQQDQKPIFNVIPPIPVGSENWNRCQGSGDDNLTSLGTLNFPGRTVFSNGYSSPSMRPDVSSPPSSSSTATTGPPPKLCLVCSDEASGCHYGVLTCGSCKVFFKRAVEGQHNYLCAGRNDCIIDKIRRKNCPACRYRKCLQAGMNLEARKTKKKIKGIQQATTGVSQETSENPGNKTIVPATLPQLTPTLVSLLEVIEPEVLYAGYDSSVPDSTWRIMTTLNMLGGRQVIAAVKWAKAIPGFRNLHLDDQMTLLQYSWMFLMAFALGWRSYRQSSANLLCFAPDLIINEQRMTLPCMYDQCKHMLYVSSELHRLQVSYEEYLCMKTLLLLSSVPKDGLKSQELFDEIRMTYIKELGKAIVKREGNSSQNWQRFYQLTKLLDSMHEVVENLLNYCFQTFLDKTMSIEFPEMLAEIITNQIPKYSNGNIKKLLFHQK
ASSAY_EXPLANATION: GR-driven (MMTV) luciferase reporter assay, agonist and antagonist mode
Assay type: cell-based
ASSAY_CONTEXT: read-out: EC50 in a luciferase reporter assay
RECORDED_ENDPOINT: pEC50
Answer as the number alone; pEC50 is minus log10 of concentration in mol/L.

stdin: Answer with the recorded pEC50 of C=CCOC1CC2(C)C(CCC2(O)C#CC)C2CCc3cc(C(=O)Nc4cccnc4C)ccc3C12 (stereo not shown) only.
stdout: 10.00
